test: Antiproliferative activity against human HL60 cells after 48 hrs by Cell Titer GLo Assay; format: functional, cell-based; conditions: HL-60, 48 h
Below: a set of entries, each annotated with reported IC50.
The reply should read as a number followed by its unit.

structureSmilesString: Nc1ccccc1NC(=O)c1ccc(Cc2nnc(Cc3cccc4ccccc34)o2)cc1
IC50: 2.8 µM

Problem: Consider the compound O=C(/C=C/c1ccc(Cc2nnc(Cc3cccc4ccccc34)o2)cc1)NO . State its measured IC50.
Solution: 6 µM

----------
biological target: Histone deacetylase 1 (Homo sapiens); experiment: Inhibition of human recombinant HDAC1 using histone H3 substrate pre-incubated at room temperature for 15 mins before substrate addition by fluorimetric assay
Sequence (Q13547 whole entry): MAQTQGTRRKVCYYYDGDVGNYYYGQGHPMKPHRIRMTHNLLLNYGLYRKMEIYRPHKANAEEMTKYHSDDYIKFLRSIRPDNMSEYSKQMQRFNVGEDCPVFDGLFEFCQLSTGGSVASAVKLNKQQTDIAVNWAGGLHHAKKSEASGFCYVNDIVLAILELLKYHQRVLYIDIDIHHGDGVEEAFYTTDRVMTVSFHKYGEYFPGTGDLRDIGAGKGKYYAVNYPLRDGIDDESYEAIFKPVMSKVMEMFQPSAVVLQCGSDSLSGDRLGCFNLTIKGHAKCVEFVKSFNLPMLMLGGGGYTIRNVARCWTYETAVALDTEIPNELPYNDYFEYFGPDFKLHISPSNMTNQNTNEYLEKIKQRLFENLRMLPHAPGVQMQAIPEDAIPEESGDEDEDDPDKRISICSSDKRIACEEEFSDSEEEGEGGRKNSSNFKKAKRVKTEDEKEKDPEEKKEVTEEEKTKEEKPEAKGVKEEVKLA
Criterion: IC50 strictly under 600 nM. Met: y. Not met: n.

Completed entries (count: 3):
structureSmilesString: Nc1ccccc1NC(=O)/C=C/c1ccc(-c2nnc(Cc3cccc4ccccc34)o2)cc1
label: n
--
structureSmilesString: O=C(NO)c1ccc(-c2nnc(Cc3cccc4ccccc34)o2)cc1
label: n
--
structureSmilesString: Nc1ccccc1NC(=O)/C=C/c1ccc(Cc2nnc(Cc3cccc4ccccc34)o2)cc1
label: n

Problem: Given the entry Nc1ccccc1NC(=O)c1ccc(Cc2nnc(Cc3cccc4ccccc34)o2)cc1 , would its reported IC50 be below 600 nM?
Solution: y

Problem: Given the entry O=C(/C=C/c1ccc(Cc2nnc(Cc3cccc4ccccc34)o2)cc1)NO , would its reported IC50 be below 600 nM?
Solution: y

Problem: Given the entry O=C(/C=C/c1ccc(-c2nnc(Cc3cccc4ccccc34)o2)cc1)NO , would its reported IC50 be below 600 nM?
Solution: n

Problem: Given the entry Nc1ccccc1NC(=O)c1ccc(-c2nnc(Cc3cccc4ccccc34)o2)cc1 , would its reported IC50 be below 600 nM?
Solution: y

Problem: Given the entry Nc1ccccc1NC(=O)/C=C/c1ccc(-c2nnc(Cc3c[nH]c4ccccc34)o2)cc1 , would its reported IC50 be below 600 nM?
Solution: n

Problem: Given the entry O=C(NO)c1ccc(Cc2nnc(Cc3cccc4ccccc34)o2)cc1 , would its reported IC50 be below 600 nM?
Solution: y

Problem: Given the entry Nc1ccccc1NC(=O)/C=C/c1ccc(-c2nnc(Cc3ccc4ccccc4c3)o2)cc1 , would its reported IC50 be below 600 nM?
Solution: n

----------
target: Histone deacetylase 4 (Homo sapiens); experiment: Inhibition of human recombinant HDAC4 using non-histone trifluoroacetyl lysine substrate pre-incubated at room temperature for 15 mins before substrate addition by fluorimetric assay
Sequence (P56524 whole entry): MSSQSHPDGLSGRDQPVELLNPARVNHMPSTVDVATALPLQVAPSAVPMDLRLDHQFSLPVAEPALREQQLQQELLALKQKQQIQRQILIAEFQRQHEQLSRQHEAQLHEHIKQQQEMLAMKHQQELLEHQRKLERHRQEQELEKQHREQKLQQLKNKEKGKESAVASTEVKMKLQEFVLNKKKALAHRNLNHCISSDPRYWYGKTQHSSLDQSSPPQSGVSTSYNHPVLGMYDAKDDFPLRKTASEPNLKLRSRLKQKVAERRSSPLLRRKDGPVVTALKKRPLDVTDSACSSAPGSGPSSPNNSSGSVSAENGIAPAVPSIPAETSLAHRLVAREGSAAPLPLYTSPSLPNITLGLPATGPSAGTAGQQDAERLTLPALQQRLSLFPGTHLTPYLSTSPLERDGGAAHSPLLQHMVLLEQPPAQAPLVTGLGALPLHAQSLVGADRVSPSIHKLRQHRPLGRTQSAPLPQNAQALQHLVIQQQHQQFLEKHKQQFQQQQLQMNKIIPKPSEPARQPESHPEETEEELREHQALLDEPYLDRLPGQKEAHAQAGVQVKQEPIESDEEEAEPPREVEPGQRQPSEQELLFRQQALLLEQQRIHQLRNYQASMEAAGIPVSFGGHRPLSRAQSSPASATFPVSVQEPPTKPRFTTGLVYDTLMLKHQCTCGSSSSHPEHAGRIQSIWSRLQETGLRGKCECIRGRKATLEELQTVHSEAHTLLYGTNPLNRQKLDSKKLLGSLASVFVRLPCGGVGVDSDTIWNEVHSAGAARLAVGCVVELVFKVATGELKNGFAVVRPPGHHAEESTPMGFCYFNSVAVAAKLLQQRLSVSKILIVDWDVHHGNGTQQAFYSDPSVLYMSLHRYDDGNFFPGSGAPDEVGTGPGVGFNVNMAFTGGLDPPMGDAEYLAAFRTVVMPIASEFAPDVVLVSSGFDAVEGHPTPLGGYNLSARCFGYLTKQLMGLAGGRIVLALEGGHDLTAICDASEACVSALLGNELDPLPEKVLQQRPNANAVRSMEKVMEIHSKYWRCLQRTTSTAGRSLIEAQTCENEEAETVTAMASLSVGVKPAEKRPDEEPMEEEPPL
pIC50: −log10 of the molar value.
outcomeMeasure: pIC50

Examples from the recorded data:
structureSmilesString: O=C(NO)c1ccc(-c2nnc(Cc3cccc4ccccc34)o2)cc1
valueObserved: < 4.70

structureSmilesString: Nc1ccccc1NC(=O)/C=C/c1ccc(-c2nnc(Cc3cccc4ccccc34)o2)cc1
valueObserved: < 4.70

Problem: Consider the compound O=C(/C=C/c1ccc(-c2nnc(Cc3cccc4ccccc34)o2)cc1)NO . State its measured pIC50.
Solution: < 4.70

Problem: Consider the compound O=C(/C=C/c1ccc(Cc2nnc(Cc3cccc4ccccc34)o2)cc1)NO . State its measured pIC50.
Solution: < 4.70

Problem: Consider the compound O=C(NO)c1ccc(Cc2nnc(Cc3cccc4ccccc34)o2)cc1 . State its measured pIC50.
Solution: 5.11

Problem: Consider the compound Nc1ccccc1NC(=O)c1ccc(-c2nnc(Cc3cccc4ccccc34)o2)cc1 . State its measured pIC50.
Solution: < 4.70

Problem: Consider the compound O=C(/C=C/c1ccc(-c2nnc(Cc3c[nH]c4ccccc34)o2)cc1)NO . State its measured pIC50.
Solution: 4.82

Problem: Consider the compound Nc1ccccc1NC(=O)/C=C/c1ccc(-c2nnc(Cc3c[nH]c4ccccc34)o2)cc1 . State its measured pIC50.
Solution: < 4.70

Problem: Consider the compound Nc1ccccc1NC(=O)c1ccc(Cc2nnc(Cc3cccc4ccccc34)o2)cc1 . State its measured pIC50.
Solution: < 4.70

Problem: Consider the compound Nc1ccccc1NC(=O)/C=C/c1ccc(Cc2nnc(Cc3cccc4ccccc34)o2)cc1 . State its measured pIC50.
Solution: < 4.70

Problem: Consider the compound Nc1ccccc1NC(=O)/C=C/c1ccc(-c2nnc(Cc3ccc4ccccc4c3)o2)cc1 . State its measured pIC50.
Solution: < 4.70
